# Tested on: HeLa-APL
# test: Inhibition of cells growth by colorimetric (SRB) assay, HeLa-APL
# details: Homo sapiens, 48 h, read-out: HELA-APL GI50, SRB assay, 48 hours exposure
Recorded GI50 for the following compounds
readout-name: GI50 (nM)

CSc1nccc(-c2c3ccc(C)nc3n3c(N)nccc23)n1    18.2
Cl.Nc1nccc(-c2c3c(Cl)ccnc3n3c(N)nccc23)n1    47.8
CSc1nccc(-c2c3cccnc3n3c(N)nccc23)n1.Cl    10.3
Nc1nccc(-c2c3cccnc3n3c(N)nccc23)n1 [Deoxyvariolin 4, deoxyvariolin B, reference compound]    66
CSc1nccc(-c2c3c(Cl)ccnc3n3c(N)nccc23)n1.Cl    9.54
CSc1nccc(-c2c3cccnc3n3c(N(C(C)=O)C(C)=O)nccc23)n1    1.77
CS(=O)(=O)c1nccc(-c2c3cccnc3n3c(N)nccc23)n1    13
CSc1nccc(-c2c3cc4ccccc4nc3n3c(N)nccc23)n1 [Compound 18a]    56.9
CSc1nccc(-c2c3cccnc3n3c(NC(C)=O)nccc23)n1    5.94
CSc1nccc(-c2c3c(N)ccnc3n3c(N)nccc23)n1.Cl    4.67

* * *

# Tested on: IGROV-ET
# test: Inhibition of cells growth by colorimetric (SRB) assay, IGROV-ET
# details: Homo sapiens, 48 h, read-out: GI50 IGROV-ET, SRB assay, 48 hours exposure
The following molecules are listed with their measured log10 of GI50 values.
readout-name: log10 of GI50 (log10 of the value in µM)

COc1nccc(-c2c3c(Cl)ccnc3n3c(N)nccc23)n1    0.88
CS(=O)(=O)c1nccc(-c2c3c(Cl)ccnc3n3c(N)nccc23)n1    0.59
Cl.Nc1nccc(-c2c3cccnc3n3c(N)nccc23)n1    -1.13
C[S+]([O-])c1nccc(-c2c3c(Cl)ccnc3n3c(N)nccc23)n1 (stereo not shown)    1.04
Nc1nccc2c(-c3ccncn3)c3c(OCc4ccccc4)ccnc3n12    0.86
CSc1nccc(-c2c3cccnc3n3ccccc23)n1    0.94
Nc1nccc2c(-c3ccnc(O)n3)c3cccnc3n12    0.39
COc1ccc(CNc2ccnc3c2c(-c2ccnc(OC)n2)c2ccnc(NCc4ccc(OC)cc4)n23)cc1    1.24
Nc1nccc2c(-c3ccnc(Oc4ccccc4)n3)c3cccnc3n12    0.03
COc1nccc(-c2c3c(O)ccnc3n3c(N)nccc23)n1    0.91
CSc1nccc(-c2c3c(Cl)ccnc3n3c(N)nccc23)n1    0.20
Nc1nccc(-c2c3cc(Cl)cnc3n3c(N)nccc23)n1    0.63
Nc1nccc2c(-c3cccc([N+](=O)[O-])c3)c3cccnc3n12    1.28
COc1nccc(-c2c3c(OC)ccnc3n3c(N)nccc23)n1    0.86
Cl.Nc1nccc2c(-c3ccncn3)c3cccnc3n12    0.02
COc1ccnc2c1c(-c1ccnc(N)n1)c1ccnc(N)n12    0.18
Nc1nccc(-c2c3c(N)ccnc3n3c(N)nccc23)n1    0.28

* * *

# System: LoVo-Dox
# test: Inhibition of cells growth by colorimetric (SRB) assay, LoVo-Dox
# details: SRB assay, 48 hours exposure
Here the recorded LOVO-DOX TGI is given for each entry.
readout-name: LOVO-DOX TGI

CSc1nccc(-c2c3ccc(C)nc3n3c(N)nccc23)n1    5.24E−06
CSc1nccc(-c2c3cc4ccccc4nc3n3c(N)nccc23)n1 [Compound 18a]    9.74E−06
CSc1nccc(-c2c3cccnc3n3c(N)nccc23)n1.Cl    2.43E−06
Cl.Nc1nccc(-c2c3c(O)ccnc3n3c(N)nccc23)n1    7.32E−07
CSc1nccc(-c2c3c(O)ccnc3n3c(N)nccc23)n1.Cl    1.93E−05
CSc1nccc(-c2c3c(N)ccnc3n3c(N)nccc23)n1.Cl    1.68E−06
CSc1nccc(-c2c3c(Cl)ccnc3n3c(N)nccc23)n1.Cl    1.61E−06
CSc1nccc(-c2c3c(O)ccnc3n3c(N)nccc23)n1    3.08E−05
Cl.Nc1nccc(-c2c3c(Cl)ccnc3n3c(N)nccc23)n1    1.72E−06
CSc1nccc(-c2c3cccnc3n3c(NC(C)=O)nccc23)n1    9.79E−06
CSc1nccc(-c2c3cccnc3n3c(N(C(C)=O)C(C)=O)nccc23)n1    1.08E−06
Nc1nccc(-c2c3cccnc3n3c(N)nccc23)n1 [Deoxyvariolin 4, deoxyvariolin B, reference compound]    2.96E−07
CS(=O)(=O)c1nccc(-c2c3cccnc3n3c(N)nccc23)n1    2.94E−05
